# assay-name: solubility in water
# cond: same solubility expressed in moles
Reported solubility in water (molar) values follow for various compounds
measurement-label: solubility in water (molar)

CBr [methyl bromide]
0.0094 moles per 1000 ml of water
CCCC(=O)OCC [ethyl butyrate]
0.059 moles per 1000 ml of water
CCBr [ethyl bromide]
0.0835 moles per 1000 ml of water
COC(=O)c1ccccc1 [methyl benzoate]
0.001532 moles per 1000 ml of water
